Each recorded value in this set is attributed to patent US7528138B2.

tested.system: Itk (Homo sapiens, UniProt Q08881)
Sequence (Q08881 1-620): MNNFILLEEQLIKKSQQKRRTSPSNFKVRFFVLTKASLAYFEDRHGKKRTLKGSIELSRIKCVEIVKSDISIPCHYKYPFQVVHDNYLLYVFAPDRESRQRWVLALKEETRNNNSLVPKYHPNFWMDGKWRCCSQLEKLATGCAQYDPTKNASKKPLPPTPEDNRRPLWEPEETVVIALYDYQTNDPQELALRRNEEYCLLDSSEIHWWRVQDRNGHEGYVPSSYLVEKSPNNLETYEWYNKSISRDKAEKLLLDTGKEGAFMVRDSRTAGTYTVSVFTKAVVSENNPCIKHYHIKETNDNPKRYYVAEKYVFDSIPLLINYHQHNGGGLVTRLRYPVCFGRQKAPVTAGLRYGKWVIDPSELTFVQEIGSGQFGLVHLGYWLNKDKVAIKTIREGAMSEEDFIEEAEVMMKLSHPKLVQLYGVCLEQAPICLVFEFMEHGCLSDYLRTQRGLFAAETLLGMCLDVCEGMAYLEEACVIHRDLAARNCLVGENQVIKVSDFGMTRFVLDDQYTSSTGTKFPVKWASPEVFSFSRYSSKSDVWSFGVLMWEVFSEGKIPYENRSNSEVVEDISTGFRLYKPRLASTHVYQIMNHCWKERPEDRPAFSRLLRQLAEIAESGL
pKi: −log10 of the molar value.
Entries annotated with measured pKi
measured.property: pKi

compound_smiles=Nc1nn2cc(-c3ccccn3)cnc2c1C(=O)NCc1ccc(Cl)c(Cl)c1 measured_property=pKi result="5.30 to 6.30"
compound_smiles=Nc1nn2cc(C#CCO)cnc2c1-c1ccccn1 measured_property=pKi result="5.30 to 6.30"
compound_smiles=COC[C@H]1CCCN1c1cc(-c2c(N)nn3cc(C)cnc23)ncn1 measured_property=pKi result="> 6.30"

* * *

tested.system: JAK3 (Homo sapiens, UniProt P52333)
Sequence (P52333 1-1124): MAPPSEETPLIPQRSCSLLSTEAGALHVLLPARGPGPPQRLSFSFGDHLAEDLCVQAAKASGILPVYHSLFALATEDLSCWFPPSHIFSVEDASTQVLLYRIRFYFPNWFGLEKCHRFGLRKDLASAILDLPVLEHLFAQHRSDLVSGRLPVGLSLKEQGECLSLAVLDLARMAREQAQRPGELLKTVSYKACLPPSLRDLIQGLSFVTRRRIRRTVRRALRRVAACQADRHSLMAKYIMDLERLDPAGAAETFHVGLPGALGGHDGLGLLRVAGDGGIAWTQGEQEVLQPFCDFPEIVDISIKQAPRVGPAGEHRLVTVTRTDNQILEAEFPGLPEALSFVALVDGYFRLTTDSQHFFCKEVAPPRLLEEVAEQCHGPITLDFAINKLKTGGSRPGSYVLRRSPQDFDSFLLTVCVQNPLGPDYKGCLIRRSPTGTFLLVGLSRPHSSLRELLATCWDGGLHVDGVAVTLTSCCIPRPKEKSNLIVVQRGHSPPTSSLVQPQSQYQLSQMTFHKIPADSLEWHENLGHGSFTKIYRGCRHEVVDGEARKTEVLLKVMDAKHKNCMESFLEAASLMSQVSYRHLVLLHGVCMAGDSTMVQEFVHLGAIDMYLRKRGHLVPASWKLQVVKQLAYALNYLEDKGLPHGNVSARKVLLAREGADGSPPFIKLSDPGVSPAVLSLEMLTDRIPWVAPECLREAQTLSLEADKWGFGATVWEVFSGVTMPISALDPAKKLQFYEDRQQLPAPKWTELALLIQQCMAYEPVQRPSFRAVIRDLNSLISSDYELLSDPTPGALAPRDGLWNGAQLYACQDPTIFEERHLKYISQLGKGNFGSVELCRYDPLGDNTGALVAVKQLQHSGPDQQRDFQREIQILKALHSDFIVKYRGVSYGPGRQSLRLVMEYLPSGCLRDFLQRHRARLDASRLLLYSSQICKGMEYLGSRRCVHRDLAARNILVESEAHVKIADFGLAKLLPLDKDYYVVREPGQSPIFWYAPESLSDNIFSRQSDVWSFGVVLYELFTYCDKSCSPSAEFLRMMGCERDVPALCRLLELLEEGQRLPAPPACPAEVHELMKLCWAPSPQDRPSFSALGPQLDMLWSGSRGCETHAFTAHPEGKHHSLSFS
pKi: −log10 of the molar value.
measured.property: pKi

compound=CCN1CCN(c2ccc(-c3cnc4c(-c5ccccn5)c(N)nn4c3)cn2)CC1 result="< 5.30"
compound=C#CCN(C)C(=O)c1ccc(-c2cnc3c(-c4ccccn4)c(N)nn3c2)nc1 result="5.30 to 6.30"
compound=Nc1nn2cc(-c3ccnc(NCCCC4=NCC=N4)c3)cnc2c1-c1ccccn1 result="5.30 to 6.30"
compound=Nc1nn2cc(-c3ccncn3)cnc2c1C(=O)N1CCCC1 result="< 5.30"
compound=Nc1nn2cc(-c3ccnc(N4CCN(CCO)CC4)c3)cnc2c1-c1ccccn1 result="5.30 to 6.30"
compound=Nc1nn2cc(-c3cccnc3N3CCCCC3)cnc2c1-c1ccccn1 result="< 5.30"
compound=CC(C)N(C)C(=O)c1ccc(-c2cnc3c(-c4ccccn4)c(N)nn3c2)nc1 result="5.30 to 6.30"
compound=CC(C)CN(C)C(=O)c1cccc(-c2cnc3c(-c4ccccn4)c(N)nn3c2)n1 result="< 5.30"
compound=Nc1ccc(CNC(=O)c2cnc3c(-c4ccccn4)c(N)nn3c2)cc1 result="< 5.30"
compound=Cc1cnc2c(-c3cc(NCC4CC4)ncn3)c(N)nn2c1 result="5.30 to 6.30"
compound=Nc1nn2cc(-c3cccc(C(=O)N4CCC[C@@H]4CN4CCCC4)n3)cnc2c1-c1ccccn1 result="5.30 to 6.30"
compound=Nc1nn2cc(-c3cccnc3N3CCN(CCO)CC3)cnc2c1-c1ccccn1 result="< 5.30"
compound="NC1CCN(Cc2cccc(C3=CN4NC(N)C(c5ccccn5)=C4N=C3)c2)CC1 (centres unmarked)" result="< 5.30"
compound=C[C@@H](CO)NCCCc1cnc2c(-c3ccccn3)c(N)nn2c1 result="< 5.30"
compound=CN1CCCN(C(=O)c2cccc(-c3cnc4c(-c5ccccn5)c(N)nn4c3)n2)CC1 result="< 5.30"
compound="Cc1cnc2c(-c3cc(N4CCCC4c4ccc(F)cc4)ncn3)c(N)nn2c1 (centres unmarked)" result="5.30 to 6.30"
compound=Nc1nn2cc(-c3ccc(N4CCNCC4)nc3)cnc2c1-c1ccccn1 result="< 5.30"
